Data origin: the supplement of paper PMC9170038

Tested on: MS2 coat protein
Assay: apparent KD of MS2 coat protein, switch OFF state (with FMN for OFF switches, without FMN for ON switches); designed switch direction (-1 OFF switch, 1 ON switch): 1; higher = weaker reporter binding
Details: FMN input: 0 or 200 uM; Eterna round: R93 (includes R88 designs)
Would you mind labelling by apparent KD of MS2 coat protein? At or over 0.02 µM is MET, under is NOT MET.

Determine whether measured apparent KD of MS2 coat protein meets or exceeds 0.02 µM for UAUCAUUACACGAAGGAUAUCGAUAAUAGAACAUGAGGAUCACCCAUGUGAAAUAAAAUACAGAACGAGAAGGUCGAGGGUGAAG [JR_SS002_Sub703]
NOT MET

* * *

System: MS2 coat protein
Assay: apparent KD of MS2 coat protein, switch ON state; designed switch direction (-1 OFF switch, 1 ON switch): -1; higher = weaker reporter binding
Details: FMN input: 0 or 200 uM; Eterna round: R93 (includes R88 designs)
Please map values of apparent KD of MS2 coat protein to classes as shown: category 1 = under 20 nM, category 2 = from 20 nM up to 40 nM, category 3 = 40 nM and over

Worked cases, answers included:
Returns: class label. Input: AAAAAGGUAGGAUAUACAUGAGGAUCACCCAUGUAAAAAAAAACAAGAGAAAAAAAAUGUAGAAGGGCCAAAAA [Ex3 Malc#4]
category 1

Returns: class label. Input: GGAAAACAUGAGGAUCACCCAUGUAAGGAUAUGCAAAAAAAAAAAAGGAUAUAGAAGGGCAGAAGGUACAAAGG [salish99-ex1-30]
category 2

Returns: class label. Input: AAAGGGUCAGGAUAUCGAUUAAUAAUAAAAUAAAUGAAGAUCGAGAAGGGACAUGAGGAUCACCCAUGUAUAAC [May 79]
category 3

Returns: class label. Input: UGUGAACAUGAGGAUCACCCAUGUGAGGAUAUACGAGCGUGAGAAAGAUAAAACGAGCGUAGAAGGCACAAGAA [JR_Exclusion1_Sub5]
category 3

Returns: class label. Input: CUCAUGUCAGGAUAUCAGUAGUAAAAAAAAAAAAUUACUACUGAGAAGGGACAUGAGGAUCACCCAUGUCCAUU [EX4 304: Super Stable 4]
category 3

New cases:
Returns: class label. Input: GGAAAACAUGAGGAUCACCCAUGUGAGGAUAUCGAUGUCCAAAAAAAAGUGCGGGACUCGAGAAGGCACUUGGA [salish99-ex1-31]
category 3

Returns: class label. Input: AAAAAGUGAGGAUAUGGUAAAAAAAAAAAAAAAAAGCACCUCCAGAAGGCACAUGAGGAUCACCCAUGUCGAAA [Jolly's Folly 6 - Jieux - Exclusion 4]
category 2

Returns: class label. Input: AAAACGGUAGGAUAUACGAUUUGGAACUAAACCGAGGAACCACAUGAGGAUCACCCAUGUAGAAGGGCCAAAAA [Mat - Exclusion 2 - JL mod - D81]
category 1

Returns: class label. Input: AGCAAGUAAGGAUAUGCGAAGUCAGGACACACACUGACGAAGCAGAAGGUACAUGAGGAUCACCCAUGUAAGCA [JR_Exclusion-4 65% 3]
category 2

Returns: class label. Input: AACAGUACAGGAUAUACAUGAGGAUCACCCAUGUGAGAAUUAAGUGGAAAACCACAAAGUAGAAGGGUACUGGA [Mat - Exclusion 3 - JL mod - D3]
category 2

Returns: class label. Input: AAGAAGGCAGGAUAUACAUGAAAGAAAGAAAAGAAAAGAAAACAUGAGGAUCACCCAUGUAGAAGGGCCAAGAA [EteRNA is fun!]
category 2

Returns: class label. Input: AGUUGGCGAGGAUAUACAUGAGGAUCACCCAUGUGAGAGAAAAAAAGGAGAAAAAAAAGUAGAAGGCGCUGACA [Ruth Fulton Benedict]
category 3

Returns: class label. Input: AGUUGGCGAGGAUAUACAUGAGGAUCACCCAUGUGAGAGUAAGAAGUGAGAAAGAGAAGUAGAAGGCGCUAACA [Ruby 54]
category 3

Returns: class label. Input: AACAGUACAGGAUAUACAUGAGGAUCACCCAUGUGAGAAUUUAGCAGCGUAACACACAGUAGAAGGGUAAUGGA [Ruby 21]
category 3

Returns: class label. Input: CUCUUGUGAGGAUAUCAAAGAAAAGAAAAGAAAGAAAAGAAUGAGAAGGCACAUGAGGAUCACCCAUGUAAGAA [EteRNA is fun!]
category 2

Returns: class label. Input: AAAAAGUCAGGAUAUACAUGAGGAUCACCCAUGUGAAAGAACGAAAAACGAAAAGCAAGUAGAAGGGACAAAAA [Ruby 78]
category 1

Returns: class label. Input: AAAUGACUAGGAUAUACAUGAGGAUCACCCAUGUGUAUAAAUAAAUACACAAAAGAAAGUAGAAGGAGUCAAAA [Ex 3 May 14]
category 1
